Answer each item with its documented EC50.
# Test system: rat pituitary cells
# TEST: growth hormone secretion in rat pituitary cell cultures (GH release, RIA)
# Type: cell-based
# CONDITION NOTES: GH release from cultured rat anterior pituitary cells, 15 min incubation at 37° C., rat GH measured by double antibody RIA; read-out: ED50 (the source's name)
# Description: The bioassay employed for the determination of growth hormone secretion in rat pituitary cell cultures has been previously described--Cheng, K.; Chan, W. W.-S; Barreto, A.; Convey, E. M.; Smith, R. G. Endocrinology 124: 2791-2798 (1989)--and is summarized here: The Wistar male rats (150-200 grams) were obtained from Charles River Laboratories (Wilmington, Mass). Rats were maintained at a constant temperature (25° C.) on a 14-hr light, 10-hr dark cycle. Rat chow and water were available ad libitum. […]

Before answering, review these 3 worked examples.
[[record]]
compound = "CCN(Cc1ccc(-c2ccccc2-c2nnn[nH]2)cc1)C(=O)[C@@H](CCc1ccccc1)NC(=O)CC(C)(C)N.O=C(O)C(F)(F)F [Example 19]"
measured = "> 500 nM"

[[record]]
compound = "CC(C)(N)C(=O)N[C@H](CCc1ccccc1)C(=O)N(Cc1ccc(-c2ccccc2-c2nnn[nH]2)cc1)c1ccc(O)cc1.O=C(O)C(F)(F)F [Example 31]"
measured = "> 500 nM"

[[record]]
compound = "CNC(=O)NCc1ccccc1-c1ccc(CN(C)C(=O)[C@@H](CCc2ccccc2)NC(=O)C(C)(C)N)cc1.O=C(O)C(F)(F)F [Example 9]"
measured = "< 500 nM"


Let us examine a further case.
# query: EC50 of entry CC(C)(N)CC(=O)N[C@H](COCc1ccccc1)C(=O)NCc1ccc(-c2ccccc2-c2nnn[nH]2)cc1.O=C(O)C(F)(F)F [Example 28]
> 500 nM

====

# Test system: rat pituitary cells
# TEST: growth hormone secretion in rat pituitary cell cultures (GH release, RIA)
# Assay type: cell-based
# CONDITION NOTES: 0.25 h; GH release from cultured rat anterior pituitary cells, 15 min incubation at 37° C., rat GH measured by double antibody RIA; read-out: ED50 (the source's name)
pEC50: −log10 of the molar value. Structures can show the parent of a compound that is named as a salt.
READOUT: pEC50

Before answering, review these 5 worked examples.
[[record]]
molecule = "CNC(=O)Nc1ccccc1-c1ccc(CNC(=O)[C@@H](Cc2c[nH]c3ccccc23)NC(=O)CC(C)(C)N)cc1 [Example 15, trifluoroacetate]"
measured = "< 6.30"

[[record]]
molecule = "CC(C)(N)CC(=O)N[C@H](Cc1c[nH]c2ccccc12)C(=O)NCc1ccc(-c2ccccc2-c2nnn[nH]2)cc1 [Example 3, trifluoroacetate]"
measured = "> 6.30"

[[record]]
molecule = "CC(C)(N)CC(=O)N[C@H](Cc1ccccc1)C(=O)NCc1ccc(-c2ccccc2-c2nnn[nH]2)cc1 [Example 2, trifluoroacetate]"
measured = "> 6.30"

[[record]]
molecule = "CN(Cc1ccc(-c2ccccc2-c2nnn[nH]2)cc1)C(=O)[C@@H](Cc1c[nH]c2ccccc12)NC(=O)C(C)(C)N [Example 13, trifluoroacetate]"
measured = "< 6.30"

[[record]]
molecule = "CC(C)(N)CC(=O)NCC(=O)NCc1ccc(-c2ccccc2-c2nnn[nH]2)cc1 [Example 5, trifluoroacetate]"
measured = "< 6.30"


Provide the reported pEC50 of each entry below, same order.
1. CC(C)(N)C(=O)N[C@H](Cc1c[nH]c2ccccc12)C(=O)NCc1ccc(-c2ccccc2NC(=O)NCCO)cc1 [Example 16, trifluoroacetate]
2. CNC(=O)Nc1ccccc1-c1ccc(CNC(=O)[C@@H](Cc2c[nH]c3ccccc23)NC(=O)C(C)(C)N)cc1 [Example 6, trifluoroacetate]

["< 6.30", "< 6.30"]

====

# Tested on: rat pituitary cells
# TEST: growth hormone secretion in rat pituitary cell cultures (GH release, RIA)
# Format: cell-based
# CONDITION NOTES: GH release from cultured rat anterior pituitary cells, 15 min incubation at 37° C., rat GH measured by double antibody RIA; read-out: ED50 (the source's name)
READOUT: EC50

[[record]]
molecular_string = "CN(Cc1ccc(-c2ccccc2-c2nnn[nH]2)cc1)C(=O)[C@@H](CCc1ccccc1)NC(=O)CCC(C)(C)N.O=C(O)C(F)(F)F"
measured = "< 500 nM"

[[record]]
molecular_string = "CCCN(Cc1ccc(-c2ccccc2-c2nnn[nH]2)cc1)C(=O)[C@@H](CCc1ccccc1)NC(=O)C(C)(C)N.O=C(O)C(F)(F)F"
measured = "< 500 nM"

[[record]]
molecular_string = "CC(C)(N)CC(=O)N[C@H](COCc1ccccc1)C(=O)NCc1ccc(-c2ccccc2NC(=O)NCCO)cc1.O=C(O)C(F)(F)F"
measured = "> 500 nM"

[[record]]
molecular_string = "CNC(=O)NCc1ccccc1-c1ccc(CN(C)C(=O)[C@@H](CCc2ccccc2)NC(=O)CCC(C)(C)N)cc1.O=C(O)C(F)(F)F"
measured = "< 500 nM"

[[record]]
molecular_string = "CN(Cc1ccc(-c2ccccc2-c2nnn[nH]2)cc1)C(=O)[C@@H](CCc1ccccc1)NC(=O)CC(C)(C)N.O=C(O)C(F)(F)F"
measured = "> 500 nM"

[[record]]
molecular_string = "CCN(Cc1ccc(-c2ccccc2CNC(=O)NC)cc1)C(=O)[C@@H](CCc1ccccc1)NC(=O)C(C)(C)N.O=C(O)C(F)(F)F"
measured = "< 500 nM"


Provide the reported EC50 of each entry below, same order.
1. CNC(=O)NCc1ccccc1-c1ccc(CN(C)C(=O)[C@@H](Cc2c[nH]c3ccccc23)NC(=O)C(C)(C)N)cc1.O=C(O)C(F)(F)F
2. CNC(=O)Nc1ccccc1-c1ccc(CNC(=O)[C@@H](COCc2ccccc2)NC(=O)CC(C)(C)N)cc1.O=C(O)C(F)(F)F

< 500 nM
> 500 nM

Provide the reported EC50 of each entry below, same order.
1. COc1ccc(N(Cc2ccc(-c3ccccc3-c3nnn[nH]3)cc2)C(=O)[C@@H](CCc2ccccc2)NC(=O)C(C)(C)N)cc1.O=C(O)C(F)(F)F
2. CCN(Cc1ccc(-c2ccccc2-c2nnn[nH]2)cc1)C(=O)[C@@H](CCc1ccccc1)NC(=O)C(C)(C)N.O=C(O)C(F)(F)F
3. CNC(=O)Nc1ccccc1-c1ccc(N(C)C(=O)[C@@H](CCc2ccccc2)NC(=O)C(C)(C)N)cc1.O=C(O)C(F)(F)F
4. COc1ccc(N(Cc2ccc(-c3ccccc3-c3nnn[nH]3)cc2)C(=O)[C@@H](CCc2ccccc2)NC(=O)CC(C)(C)N)cc1.O=C(O)C(F)(F)F

["> 500 nM", "> 500 nM", "> 500 nM", "> 500 nM"]

====

# Tested on: rat pituitary cells
# TEST: growth hormone secretion in rat pituitary cell cultures (GH release, RIA)
# Assay type: cell-based
# CONDITION NOTES: GH release from cultured rat anterior pituitary cells, 15 min incubation at 37° C., rat GH measured by double antibody RIA; read-out: ED50 (the source's name)
Answer each item with its documented EC50.

Before answering, review these 5 worked examples.
[[record]]
molecular_string = "CCN(Cc1ccc(-c2ccccc2CNC(=O)NC)cc1)C(=O)[C@@H](CCc1ccccc1)NC(=O)CC(C)(C)N.O=C(O)C(F)(F)F"
experimental_system = "rat pituitary cells"
measured = "< 500 nM"

[[record]]
molecular_string = "CC(C)(N)C(=O)N[C@H](COCc1ccccc1)C(=O)NCc1ccc(-c2ccccc2NC(=O)NCCO)cc1.O=C(O)C(F)(F)F"
experimental_system = "rat pituitary cells"
measured = "> 500 nM"

[[record]]
molecular_string = "CN(Cc1ccc(-c2ccccc2C#N)cc1)C(=O)[C@@H](CCc1ccccc1)NC(=O)C(C)(C)N.O=C(O)C(F)(F)F"
experimental_system = "rat pituitary cells"
measured = "> 500 nM"

[[record]]
molecular_string = "CNC(=O)NCc1ccccc1-c1ccc(CN(C)C(=O)[C@@H](CCc2ccccc2)NC(=O)CC(C)(C)N)cc1.O=C(O)C(F)(F)F"
experimental_system = "rat pituitary cells"
measured = "< 500 nM"

[[record]]
molecular_string = "CC(C)(N)C(=O)N[C@H](COCc1ccccc1)C(=O)NCc1ccc(-c2ccccc2-c2nnn[nH]2)cc1.O=C(O)C(F)(F)F"
experimental_system = "rat pituitary cells"
measured = "> 500 nM"


# query: EC50 of entry CN(Cc1ccc(-c2ccccc2-c2nnn[nH]2)cc1)C(=O)[C@@H](CCc1ccccc1)NC(=O)C(C)(C)N.O=C(O)C(F)(F)F
< 500 nM
